Give measured Activity for each item. Keep answers brief.
assay: Metal chelating activity of compound assessed as compound-Cu2+ complex formation at 200 uM after 10 mins in presence of CuSO4.5H2O by complexometric indicator murexide based UV-Vis spectrophotometric analysis; assay type: physicochemical
The response must be a number in % with no trailing unit.

Query: Given the entry Cl.Cl.NCC(N)CCCCNC(=O)CCn1cccc(O)c1=O (stereo unspecified) , report its measured Activity.
Result: 62.77

Query: Given the entry Cc1c(O)c(=O)ccn1CCC(=O)NCCCCC(N)CN.Cl.Cl (stereo unspecified) , report its measured Activity.
Result: 74.7

Query: Given the entry Cl.Cl.NCC(N)CCCNC(=O)CCn1cccc(O)c1=O (stereo unspecified) , report its measured Activity.
Result: 59.96

Query: Given the entry COc1cc(/C=C/C(=O)N2CCN(C(=O)CCC(N)CN)CC2)ccc1O.Cl.Cl (stereo unspecified) , report its measured Activity.
Result: 45.61

Query: Given the entry Cl.Cl.NCC(N)CCC(=O)N1CCN(C(=O)c2cc(O)c(O)c(O)c2)CC1 (stereo unspecified) , report its measured Activity.
Result: 52.75

Query: Given the entry Cc1c(O)c(=O)ccn1CCCNC(=O)CCC(N)CN.Cl.Cl (stereo unspecified) , report its measured Activity.
Result: 66.7

Query: Given the entry `NCCC(=O)N[C@@H](Cc1cnc[nH]1)C(=O)O` , report its measured Activity.
Result: 1.53

Query: Given the entry Cl.Cl.NCC(N)CCCCNC(=O)c1cc(O)c(O)c(O)c1 (stereo unspecified) , report its measured Activity.
Result: 87.39

Query: Given the entry Cl.Cl.NCC(N)CCC(=O)NCCCn1cccc(O)c1=O (stereo unspecified) , report its measured Activity.
Result: 55.83

Query: Given the entry Cl.Cl.NCC(N)CC(=O)N1CCN(C(=O)CCn2cccc(O)c2=O)CC1 (stereo unspecified) , report its measured Activity.
Result: 50.25

Query: Given the entry CCCCN1CCN(C(=O)C(N)CN)CC1.Cl.Cl (stereo unspecified) , report its measured Activity.
Result: 27.68

Query: Given the entry `NCCN` , report its measured Activity.
Result: 100

Query: Given the entry Cl.Cl.NCC(N)CCC(=O)N1CCN(C(=O)CCn2cccc(O)c2=O)CC1 (stereo unspecified) , report its measured Activity.
Result: 53.23

Query: Given the entry Cl.Cl.NCC(N)C(=O)N1CCNCC1 (stereo unspecified) , report its measured Activity.
Result: 23.6

Query: Given the entry CC(C)(C)OC(=O)NCC(CCCCNC(=O)CCn1cccc(O)c1=O)NC(=O)OC(C)(C)C.Cl.Cl (stereo unspecified) , report its measured Activity.
Result: 54.61

Query: Given the entry Cl.Cl.NCC(N)CCCCNC(=O)CCn1cccc(OCc2ccccc2)c1=O (stereo unspecified) , report its measured Activity.
Result: 33.91

###

experiment: Reactive carbonyl species trapping activity of compound assessed as MGO adduct formation at 10 mM preincubated for 24 hrs with MGO measured after 0.25 hrs by LCMS analysis; format: physicochemical; conditions: 10000 µM
measured.attribute: Activity (%)
The response must be a number in % with no trailing unit.

Query: Given the entry CCCCN1CCN(C(=O)C(N)CN)CC1.Cl.Cl (stereo unspecified) , report its measured Activity.
Result: 59

Query: Given the entry Cl.Cl.NCC(N)CCC(=O)NCCCn1cccc(O)c1=O (stereo unspecified) , report its measured Activity.
Result: 97

Query: Given the entry Cl.Cl.NCC(N)CCCNC(=O)CCn1cccc(O)c1=O (stereo unspecified) , report its measured Activity.
Result: 97

Query: Given the entry COc1cc(/C=C/C(=O)NCCCCC(N)CN)ccc1O.Cl.Cl (stereo unspecified) , report its measured Activity.
Result: 100

Query: Given the entry Cl.Cl.NCC(N)CCC(=O)N1CCN(C(=O)CCn2cccc(O)c2=O)CC1 (stereo unspecified) , report its measured Activity.
Result: 97

Query: Given the entry Cl.Cl.NCC(N)CCC(=O)N1CCN(C(=O)c2cc(O)c(O)c(O)c2)CC1 (stereo unspecified) , report its measured Activity.
Result: 81

###

assay: Reactive carbonyl species trapping activity of compound assessed as MGO adduct formation at 10 mM preincubated for 24 hrs with MGO measured after 1 hr by LCMS analysis; assay type: physicochemical; conditions: 10000 µM
measured.attribute: Activity (%)
The response must be a number in % with no trailing unit.

Query: Given the entry Cc1c(O)c(=O)ccn1CCCNC(=O)CCC(N)CN.Cl.Cl (stereo unspecified) , report its measured Activity.
Result: 100

Query: Given the entry Cc1c(O)c(=O)ccn1CCC(=O)NCCCCC(N)CN.Cl.Cl (stereo unspecified) , report its measured Activity.
Result: 99

Query: Given the entry Cl.Cl.NCC(N)CCC(=O)N1CCN(C(=O)CCn2cccc(O)c2=O)CC1 (stereo unspecified) , report its measured Activity.
Result: 98

Query: Given the entry Cl.Cl.NCC(N)CCCNC(=O)CCn1cccc(O)c1=O (stereo unspecified) , report its measured Activity.
Result: 98

Query: Given the entry Cl.Cl.NCC(N)C(=O)N1CCNCC1 (stereo unspecified) , report its measured Activity.
Result: 37

Query: Given the entry CCCCN1CCN(C(=O)C(N)CN)CC1.Cl.Cl (stereo unspecified) , report its measured Activity.
Result: 70

Query: Given the entry Cl.Cl.NCC(N)CCC(=O)NCCCn1cccc(O)c1=O (stereo unspecified) , report its measured Activity.
Result: 97

Query: Given the entry Cl.Cl.NCC(N)CCCCNC(=O)c1cc(O)c(O)c(O)c1 (stereo unspecified) , report its measured Activity.
Result: 93

Query: Given the entry Cl.Cl.NCC(N)CCC(=O)N1CCN(C(=O)c2cc(O)c(O)c(O)c2)CC1 (stereo unspecified) , report its measured Activity.
Result: 87

Query: Given the entry Cl.Cl.NCC(N)CC(=O)N1CCN(C(=O)CCn2cccc(O)c2=O)CC1 (stereo unspecified) , report its measured Activity.
Result: 99

Query: Given the entry COc1cc(/C=C/C(=O)NCCCCC(N)CN)ccc1O.Cl.Cl (stereo unspecified) , report its measured Activity.
Result: 100

###

experiment: Metal chelating activity of compound assessed as compound-Cu2+ complex formation at 0.02 mM after 10 mins in presence of CuSO4.5H2O by complexometric indicator murexide based UV-Vis spectrophotometric analysis; format: physicochemical; conditions: 20 µM
Would you please tag the item y when its Activity is 10% or above, and n when it is below?

Query: Entry COc1cc(/C=C/C(=O)NCCCCC(N)CN)ccc1O.Cl.Cl (configuration not stated) : is its Activity no less than 10%?
Result: n

Query: Entry Cl.Cl.NCC(N)CCCCNC(=O)c1cc(O)c(O)c(O)c1 (configuration not stated) : is its Activity no less than 10%?
Result: y

Query: Entry Cl.Cl.NCC(N)CCCCNC(=O)CCn1cccc(OCc2ccccc2)c1=O (configuration not stated) : is its Activity no less than 10%?
Result: n

Query: Entry Cl.Cl.NCC(N)CCCCNC(=O)CCn1cccc(O)c1=O (configuration not stated) : is its Activity no less than 10%?
Result: y

Query: Entry Cl.Cl.NCC(N)CCCNC(=O)CCn1cccc(O)c1=O (configuration not stated) : is its Activity no less than 10%?
Result: y

Query: Entry CCCCN1CCN(C(=O)C(N)CN)CC1.Cl.Cl (configuration not stated) : is its Activity no less than 10%?
Result: n

Query: Entry Cl.Cl.NCC(N)CCC(=O)N1CCN(C(=O)CCn2cccc(O)c2=O)CC1 (configuration not stated) : is its Activity no less than 10%?
Result: y

Query: Entry Cc1c(O)c(=O)ccn1CCCNC(=O)CCC(N)CN.Cl.Cl (configuration not stated) : is its Activity no less than 10%?
Result: y

Query: Entry CC(C)(C)OC(=O)NCC(CCCCNC(=O)CCn1cccc(O)c1=O)NC(=O)OC(C)(C)C.Cl.Cl (configuration not stated) : is its Activity no less than 10%?
Result: y

Query: Entry Cl.Cl.NCC(N)C(=O)N1CCNCC1 (configuration not stated) : is its Activity no less than 10%?
Result: n

Query: Entry COc1cc(/C=C/C(=O)N2CCN(C(=O)CCC(N)CN)CC2)ccc1O.Cl.Cl (configuration not stated) : is its Activity no less than 10%?
Result: n

Query: Entry `NCCN` : is its Activity no less than 10%?
Result: y

Query: Entry Cl.Cl.NCC(N)CCC(=O)NCCCn1cccc(O)c1=O (configuration not stated) : is its Activity no less than 10%?
Result: y

Query: Entry Cl.Cl.NCC(N)CCC(=O)N1CCN(C(=O)c2cc(O)c(O)c(O)c2)CC1 (configuration not stated) : is its Activity no less than 10%?
Result: n

Query: Entry `NCCC(=O)N[C@@H](Cc1cnc[nH]1)C(=O)O` : is its Activity no less than 10%?
Result: n

Query: Entry Cl.Cl.NCC(N)CC(=O)N1CCN(C(=O)CCn2cccc(O)c2=O)CC1 (configuration not stated) : is its Activity no less than 10%?
Result: y

Query: Entry Cc1c(O)c(=O)ccn1CCC(=O)NCCCCC(N)CN.Cl.Cl (configuration not stated) : is its Activity no less than 10%?
Result: y

Numbers sourced from ChEMBL document CHEMBL3865830.
